Recorded values, source the supplement of paper PMC7877785.

test: self-splicing fitness, log relative to wild type (ln ratio); higher = more splicing; Tetrahymena group I intron in knt gene, E. coli kanamycin selection, DiMSum; sequences stand for … in CUCUCU…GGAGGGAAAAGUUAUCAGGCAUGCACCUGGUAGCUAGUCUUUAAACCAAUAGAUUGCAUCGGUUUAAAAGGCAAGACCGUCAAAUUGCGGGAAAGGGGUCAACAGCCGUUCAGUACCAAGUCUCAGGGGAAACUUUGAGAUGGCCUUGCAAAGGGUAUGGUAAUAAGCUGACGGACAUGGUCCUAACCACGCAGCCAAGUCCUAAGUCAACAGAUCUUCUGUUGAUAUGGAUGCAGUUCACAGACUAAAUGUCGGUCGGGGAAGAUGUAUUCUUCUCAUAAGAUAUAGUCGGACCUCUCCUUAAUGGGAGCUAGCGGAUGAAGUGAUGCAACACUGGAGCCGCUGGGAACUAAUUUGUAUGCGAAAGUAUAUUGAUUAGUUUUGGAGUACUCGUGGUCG; settings: 30 °C;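 further: selection with 25 µg/mL kanamycin versus none on LB agar overnight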
Measured property: self-splicing fitness (ln)
Answer as a number with no unit attached.

Query block: What measured self-splicing fitness (ln) goes with `AACGAGCAAUAUUACGGAGG` ?
Result block: -2.79

Query block: Param item: `AUAGAGCAAUAUUACGUUAC`
Result block: -1.38

Query block: Also `GGCUAGCAAUAUUACGGUUG` , if possible.
Result block: -0.166

Query block: For `GGCUAGCAAUAUUACGCGCU` then?
Result block: -2.76

Query block: Next entry: `AAAUAGCAAUAUUACGUCUC`
Result block: -2.14

Query block: How about `CUGUAGCAAUAUUACGGUCC` ?
Result block: -2.27

Query block: # iterate: `AUUUAGCAAUAUUACGACAU`
Result block: 0.163

Query block: Also `UGGAAGCAAUAUUACGUUAU` ?
Result block: -2.23

Query block: Entry `GGGCAGCAAUAUUACGAAUG` please
Result block: -2.93

Query block: Now the sequence `CGGGAGCAAUAUUACGGGCC`
Result block: -1.81

Query block: Input `GAAGAGCAAUAUUACGCACU`
Result block: -2.39

Query block: Do the same for `UAGCAGCAAUAUUACGUGGA` please
Result block: -2.16

Query block: Please do the same for `GGGAAGCAAUAUUACGGAUU` as well.
Result block: -0.965

Query block: Query `CUGCAGCAAUAUUACGGUCA` next
Result block: -3.07

Query block: Okay, and `AUACAGCAAUAUUACGGAGC` ?
Result block: -3.27

Query block: What about this sequence? `UUCAAGCAAUAUUACGGUGC`
Result block: -2.77

Query block: What about this sequence? `AUAGAGCAAUAUUACGUGUU`
Result block: -3.73

Query block: Item: `UCCAAGCAAUAUUACGGCGU`
Result block: -1.95

Query block: Proceed to `ACCUAGCAAUAUUACGUAUC`
Result block: -2.83

Query block: Also need `CCGUAGCAAUAUUACGAUAC` , thanks.
Result block: -3.22

Query block: // same read-out, input: `AUUCAGCAAUAUUACGGUGU`
Result block: -0.571

Query block: What do you get for `UCGUAGCAAUAUUACGUUGG` ?
Result block: -2.59

Query block: And `GGACAGCAAUAUUACGAAAU` ?
Result block: -1.25

Query block: How about this sequence: `UACGAGCAAUAUUACGCCAA`
Result block: -2.18

Query block: What about `UUGGAGCAAUAUUACGGUUG` ?
Result block: -3.97

Query block: Query `GGCUAGCAAUAUUACGGUCC` next
Result block: -4.11

Query block: Likewise for `GAUGAGCAAUAUUACGCGAU` ?
Result block: -3.05

Query block: For `ACACAGCAAUAUUACGUAAA` then?
Result block: -3.49

Query block: Subsequent entry: `CACGAGCAAUAUUACGCUGA`
Result block: -3.57

Query block: `UUUGAGCAAUAUUACGUUAU` , same question.
Result block: -3.92

Query block: Queued: `CCGAAGCAAUAUUACGUGUA`
Result block: -4.03

Query block: Another sequence to look at: `CUUGAGCAAUAUUACGUAGU`
Result block: -3.28

Query block: Quick one: `GCCUAGCAAUAUUACGGUCA`
Result block: -0.989

Query block: Same question for `UAAAAGCAAUAUUACGGAUG` please.
Result block: -0.849

Query block: Proceed to `GGCGAGCAAUAUUACGAAUU`
Result block: -1.66

Query block: Further, for `CUGUAGCAAUAUUACGAAGC` ?
Result block: -4.57

Query block: Subsequent entry: `AGUCAGCAAUAUUACGGUGG`
Result block: -3.01

Query block: For `GAGCAGCAAUAUUACGUCGA` then?
Result block: -1.51

Query block: Entry to check: `ACAGAGCAAUAUUACGACGA`
Result block: -0.906

Query block: Another sequence to check: `ACUAAGCAAUAUUACGAAAC`
Result block: -3.55

Query block: And then `GACAAGCAAUAUUACGGCCC` , what is it?
Result block: -0.324

Query block: Now consider `AGGGAGCAAUAUUACGACAG` .
Result block: -2.9

Query block: Also, `ACCAAGCAAUAUUACGCCCA` please.
Result block: -1.06

Query block: Another sequence to look at: `GAGGAGCAAUAUUACGACCA`
Result block: -2.57

Query block: Follow-up item: `GACUAGCAAUAUUACGACGA`
Result block: -0.416

Query block: Again, but for `GCAUAGCAAUAUUACGAGCU`
Result block: -3.2

Query block: // query: `CGCCAGCAAUAUUACGCUUG`
Result block: -2.95

Query block: Another sequence to check: `CAGCAGCAAUAUUACGGCGA`
Result block: -0.356

Query block: Same read-out for `UGGGAGCAAUAUUACGUCUA` ?
Result block: -1.22

Query block: // query: `UUACAGCAAUAUUACGUGAU`
Result block: -4.22

Query block: `AUACAGCAAUAUUACGAGCA` ?
Result block: -2.04

Query block: Try this sequence next: `CGACAGCAAUAUUACGGUGA`
Result block: -2.34

Query block: Further, for `GAACAGCAAUAUUACGCAUG` ?
Result block: -1.18

Query block: // next record `UUCCAGCAAUAUUACGAGUG`
Result block: -0.354

Query block: Next: `UAAGAGCAAUAUUACGUGUC`
Result block: -3.09

* * *

assay: self-splicing fitness, log relative to wild type (ln ratio); higher = more splicing; Tetrahymena group I intron in knt gene, E. coli kanamycin selection, DiMSum; sequences stand for … in CUCUCU…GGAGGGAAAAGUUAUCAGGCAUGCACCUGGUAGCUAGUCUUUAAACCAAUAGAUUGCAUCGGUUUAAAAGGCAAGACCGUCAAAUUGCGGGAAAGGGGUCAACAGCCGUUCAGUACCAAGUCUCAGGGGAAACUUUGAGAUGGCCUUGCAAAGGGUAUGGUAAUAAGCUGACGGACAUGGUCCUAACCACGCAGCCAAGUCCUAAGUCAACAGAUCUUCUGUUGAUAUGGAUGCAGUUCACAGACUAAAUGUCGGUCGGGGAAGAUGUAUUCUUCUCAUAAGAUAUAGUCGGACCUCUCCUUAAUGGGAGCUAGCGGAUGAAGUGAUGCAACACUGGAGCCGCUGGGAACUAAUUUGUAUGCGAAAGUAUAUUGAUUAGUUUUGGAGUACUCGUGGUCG; details: 30 °C
Would you kindly list self-splicing fitness (ln) for each of these sequences?
Would you mind answering with just the numeric figure?

Query block: Dear colleague, I am looking for the recorded self-splicing fitness (ln) of the following sequence: `UUGCAGCAAUAUUACGACGU`
Result block: -3.09

Query block: And `UUCGAGCAAUAUUACGUUUG` ?
Result block: -2.94

Query block: Let us now turn to `AUUGAGCAAUAUUACGAAUC`
Result block: -2.93

Query block: Next sequence: `CAUCAGCAAUAUUACGUCGC`
Result block: -3.05

Query block: Next sequence: `UGACAGCAAUAUUACGGUCA`
Result block: -2.97

* * *

experiment: self-splicing fitness, log relative to wild type (ln ratio); higher = more splicing; Tetrahymena group I intron in knt gene, E. coli kanamycin selection, DiMSum; sequences stand for … in CUCUCU…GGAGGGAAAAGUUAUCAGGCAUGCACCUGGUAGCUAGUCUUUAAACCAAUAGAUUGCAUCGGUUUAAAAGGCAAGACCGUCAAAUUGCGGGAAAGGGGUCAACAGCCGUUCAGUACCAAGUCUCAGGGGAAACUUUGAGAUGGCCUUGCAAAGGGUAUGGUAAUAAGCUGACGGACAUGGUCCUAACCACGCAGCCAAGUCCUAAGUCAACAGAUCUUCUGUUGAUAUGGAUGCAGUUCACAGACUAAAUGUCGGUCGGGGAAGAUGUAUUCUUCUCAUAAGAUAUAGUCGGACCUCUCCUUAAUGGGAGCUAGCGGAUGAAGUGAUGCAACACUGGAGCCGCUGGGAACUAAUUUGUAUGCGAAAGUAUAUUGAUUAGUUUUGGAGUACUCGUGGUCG; conditions: 37 °C
// label 0 strictly below -2 in self-splicing fitness (ln); label 1 otherwise

Query block: Can `CUAUAGCAAUAUUACGCGCG` be said to have self-splicing fitness (ln) at or above -2?
Result block: label 1

Query block: Further, for `UCUUAGCAAUAUUACGGGGG` ?
Result block: label 0

Query block: // next record `CAAAAGCAAUAUUACGUUUC`
Result block: label 0

Query block: What would you report for `UUCCAGCAAUAUUACGAGCU` ?
Result block: label 0

Query block: And then `ACAGAGCAAUAUUACGAGGC` , what is it?
Result block: label 0

Query block: Also check `GGCUAGCAAUAUUACGAGGA`
Result block: label 1

Query block: Next sequence up: `AAGAAGCAAUAUUACGAAAA`
Result block: label 1

Query block: Next record, please: `GUUUAGCAAUAUUACGUUCG`
Result block: label 1

Query block: Entry `UCUAAGCAAUAUUACGCCAA` please
Result block: label 1

Query block: Further, for `CGCAAGCAAUAUUACGUGAG` ?
Result block: label 0

Query block: Now try `AGCCAGCAAUAUUACGAUUU` .
Result block: label 1

Query block: Also check `AGCUAGCAAUAUUACGGCUU`
Result block: label 0

Query block: Now the sequence `GGCCAGCAAUAUUACGUAAG`
Result block: label 1

Query block: Likewise for `UGUGAGCAAUAUUACGGUCG` ?
Result block: label 1

Query block: Can you check `UACAAGCAAUAUUACGUUCA` next?
Result block: label 1

Query block: Param item: `CUACAGCAAUAUUACGUUAC`
Result block: label 0

Query block: Another sequence to check: `UUCCAGCAAUAUUACGGCAA`
Result block: label 1

Query block: Moving on to `GGUAAGCAAUAUUACGGGAG`
Result block: label 0

Query block: Repeat for the following sequence: `AGGGAGCAAUAUUACGACCU`
Result block: label 1

Query block: Item: `CUGUAGCAAUAUUACGAAAU`
Result block: label 0

Query block: Try the sequence `GCCGAGCAAUAUUACGAAGC`
Result block: label 1

Query block: Let us now turn to `CAUCAGCAAUAUUACGCGGU`
Result block: label 0

Query block: Same thing, different sequence: `CUUAAGCAAUAUUACGUAUC`
Result block: label 0

Query block: Also check `UUCGAGCAAUAUUACGGUCC`
Result block: label 1

Query block: What about `ACGGAGCAAUAUUACGUGGG` ?
Result block: label 0

Query block: Another sequence to check: `GGCGAGCAAUAUUACGAGGU`
Result block: label 1

Query block: Also, `UCGCAGCAAUAUUACGGUUU` please.
Result block: label 1

Query block: Follow-up item: `AGAAAGCAAUAUUACGAGAC`
Result block: label 0

Query block: Please answer likewise for `AGUCAGCAAUAUUACGCCCG`
Result block: label 1

Query block: Next: `GCCUAGCAAUAUUACGUAUA`
Result block: label 1

Query block: One more sequence: `CUCCAGCAAUAUUACGGCAA`
Result block: label 0

Query block: Now try `UCGCAGCAAUAUUACGUACA` .
Result block: label 1

Query block: // repeat for `AUUUAGCAAUAUUACGCUCA` and report
Result block: label 1

Query block: Ok, now `CCUAAGCAAUAUUACGUGCG`
Result block: label 1

Query block: Try this sequence next: `GGCUAGCAAUAUUACGAAGG`
Result block: label 1

Query block: Also `CAAAAGCAAUAUUACGCAGA` ?
Result block: label 1

Query block: And then `CGAUAGCAAUAUUACGGCAG` , what is it?
Result block: label 1

Query block: What would you report for `AACAAGCAAUAUUACGGCUA` ?
Result block: label 1

Query block: Similarly, `CAUAAGCAAUAUUACGGGCG` ?
Result block: label 1

Query block: What do we get for `UCGAAGCAAUAUUACGCAGC` ?
Result block: label 0

Query block: `GUCCAGCAAUAUUACGAUCG` ?
Result block: label 1

Query block: What do you have for `GGUUAGCAAUAUUACGUUUU` ?
Result block: label 1

Query block: Also check `CCUCAGCAAUAUUACGCUCG`
Result block: label 0

Query block: Also `AUCAAGCAAUAUUACGAGAA` , if possible.
Result block: label 0

Query block: How about this sequence: `CAAUAGCAAUAUUACGGACU`
Result block: label 0

Query block: And `GAAUAGCAAUAUUACGACAC` ?
Result block: label 1

Query block: Queued: `CAUUAGCAAUAUUACGUUAC`
Result block: label 0

Query block: Now try `UAUAAGCAAUAUUACGCCUG` .
Result block: label 1

Query block: Do the same for `UCACAGCAAUAUUACGUGAU` please
Result block: label 0

Query block: `UAUCAGCAAUAUUACGUAAG` , same question.
Result block: label 1

Query block: Same for `ACGUAGCAAUAUUACGCGAU`
Result block: label 1

Query block: Note, next up: `UUGCAGCAAUAUUACGGACU`
Result block: label 1

Query block: And what about the sequence `CAUUAGCAAUAUUACGGUAU` ?
Result block: label 1

Query block: Here is the next sequence: `CCCAAGCAAUAUUACGAUAU`
Result block: label 0
